Target: T1, cyno TfR extracellular domain (analogous construct to human TfR ecd) (cynomolgus monkey, UniProt Q5RDH6 87-760 (Pongo abelii entry))
T1 construct: also called cynoTfR ecd
T1 chain: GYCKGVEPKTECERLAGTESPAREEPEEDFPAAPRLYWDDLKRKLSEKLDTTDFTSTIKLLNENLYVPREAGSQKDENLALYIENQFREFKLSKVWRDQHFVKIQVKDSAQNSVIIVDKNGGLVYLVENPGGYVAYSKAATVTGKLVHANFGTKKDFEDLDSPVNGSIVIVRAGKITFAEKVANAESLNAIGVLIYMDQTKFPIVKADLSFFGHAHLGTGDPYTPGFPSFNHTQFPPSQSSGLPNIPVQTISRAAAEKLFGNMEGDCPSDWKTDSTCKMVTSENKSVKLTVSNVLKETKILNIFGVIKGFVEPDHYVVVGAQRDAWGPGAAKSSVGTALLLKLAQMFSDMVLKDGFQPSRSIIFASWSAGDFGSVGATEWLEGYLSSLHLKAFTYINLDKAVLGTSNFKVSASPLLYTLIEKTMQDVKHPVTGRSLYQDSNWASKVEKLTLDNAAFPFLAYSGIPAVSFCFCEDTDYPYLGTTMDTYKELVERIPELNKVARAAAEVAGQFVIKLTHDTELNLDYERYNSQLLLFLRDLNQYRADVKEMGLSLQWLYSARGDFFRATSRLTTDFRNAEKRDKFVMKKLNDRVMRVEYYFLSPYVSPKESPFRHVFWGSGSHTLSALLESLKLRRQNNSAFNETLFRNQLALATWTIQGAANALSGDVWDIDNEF
Test: ELISA, IgG
Collected EC50 values appear next to each entry.
Give just the numeric value; µg/mL need not be written.

F91A (antibody, V domains shown, also called 15G11.v5 F91A (CDR-L3) IgG) VH: EVQLVQSGAEVKKPGASVKVSCKASGYTFTSYWMHWVRQAPGQRLEWIGEINPTNGRTNYIEKFKSRATLTVDKSASTAYMELSSLRSEDTAVYYCARGTRAYHYWGQGTMVTVSS VL: DIQMTQSPSSLSASVGDRVTITCRASDNLYSNLAWYQQKPGKSPKLLVYDATNLADGVPSRFSGSGSGTDYTLTISSLQPEDFATYYCQHAWGTPLTFGQGTKVEIK = 0.953

Could you now consider this next binder?
Query: Quick one: EC50 for hu15G11.v5 IgG (antibody, V domains shown, Human IgG (detected with anti-human Fc gamma); also called humanized 15G11.v5) VH: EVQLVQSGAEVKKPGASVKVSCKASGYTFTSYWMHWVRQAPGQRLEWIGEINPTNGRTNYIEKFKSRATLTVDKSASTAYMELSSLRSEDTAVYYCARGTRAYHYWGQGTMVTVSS VL: DIQMTQSPSSLSASVGDRVTITCRASDNLYSNLAWYQQKPGKSPKLLVYDATNLADGVPSRFSGSGSGTDYTLTISSLQPEDFATYYCQHFWGTPLTFGQGTKVEIK ?
Reply: 0.02
